molecular target: Telomerase reverse transcriptase (Homo sapiens) (UniProt O14746); experiment: Inhibition of TERT in human H1299 cells assessed as residual transcriptional activity at 1 uM after 24 hrs by SEAP reporter gene assay; values are per cent of control
Sequence (O14746 whole entry): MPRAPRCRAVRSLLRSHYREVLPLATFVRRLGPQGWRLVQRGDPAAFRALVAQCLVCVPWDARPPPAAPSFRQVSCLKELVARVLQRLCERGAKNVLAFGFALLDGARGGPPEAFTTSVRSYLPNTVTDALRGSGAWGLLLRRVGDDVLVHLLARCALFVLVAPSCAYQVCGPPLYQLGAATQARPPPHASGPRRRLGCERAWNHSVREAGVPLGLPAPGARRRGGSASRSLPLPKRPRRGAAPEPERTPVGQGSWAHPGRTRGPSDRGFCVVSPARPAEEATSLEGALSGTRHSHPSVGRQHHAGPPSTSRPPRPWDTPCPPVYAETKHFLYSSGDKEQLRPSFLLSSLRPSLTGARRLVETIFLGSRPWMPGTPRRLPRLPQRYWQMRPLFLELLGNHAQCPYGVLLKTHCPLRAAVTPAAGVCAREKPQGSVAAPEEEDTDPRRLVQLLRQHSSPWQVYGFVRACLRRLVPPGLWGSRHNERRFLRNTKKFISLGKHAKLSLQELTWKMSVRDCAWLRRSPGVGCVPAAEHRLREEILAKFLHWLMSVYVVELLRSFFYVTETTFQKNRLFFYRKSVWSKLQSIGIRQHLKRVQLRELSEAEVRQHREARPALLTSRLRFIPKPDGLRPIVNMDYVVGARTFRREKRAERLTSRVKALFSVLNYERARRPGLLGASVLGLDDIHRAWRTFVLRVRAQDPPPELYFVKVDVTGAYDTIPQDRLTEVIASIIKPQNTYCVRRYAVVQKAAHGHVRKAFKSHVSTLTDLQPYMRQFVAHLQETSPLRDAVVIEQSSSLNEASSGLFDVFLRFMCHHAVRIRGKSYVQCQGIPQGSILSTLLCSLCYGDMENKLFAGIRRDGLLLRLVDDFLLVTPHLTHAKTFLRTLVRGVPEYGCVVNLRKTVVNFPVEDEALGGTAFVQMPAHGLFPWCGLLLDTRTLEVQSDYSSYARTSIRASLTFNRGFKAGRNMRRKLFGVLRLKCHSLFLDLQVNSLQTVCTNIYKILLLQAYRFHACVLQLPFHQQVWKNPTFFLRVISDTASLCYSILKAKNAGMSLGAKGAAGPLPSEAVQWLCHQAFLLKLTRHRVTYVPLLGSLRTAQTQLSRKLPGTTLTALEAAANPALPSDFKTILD
Reported residual activity by item:

{"columns": ["COMPOUND", "residual activity"],
 "data": [
  ["CC/C=C/c1nc2ccc3c(c2[nH]1)C(=O)c1ccccc1C3=O", "63%"],
  ["Cc1nc2ccc3c(c2nc1C)C(=O)c1ccccc1C3=O", "95%"],
  ["Cc1ccc(-c2nc3ccc4c(c3[nH]2)C(=O)c2ccccc2C4=O)cc1", "86%"],
  ["Cc1nc2ccc3c(c2[nH]1)C(=O)c1ccccc1C3=O", "101%"],
  ["COc1ccc(OC)c(-c2nc3ccc4c(c3[nH]2)C(=O)c2ccccc2C4=O)c1", "77%"],
  ["N#Cc1ccc(-c2nc3ccc4c(c3[nH]2)C(=O)c2ccccc2C4=O)cc1", "91%"],
  ["CC1(C)Nc2ccc3c(c2N1)C(=O)c1ccccc1C3=O", "96%"],
  ["CC1(c2ccccc2)Nc2ccc3c(c2N1)C(=O)c1ccccc1C3=O (centres undefined)", "99%"],
  ["O=C1c2ccccc2C(=O)c2c1ccc1nsnc21", "89%"],
  ["O=C1c2ccccc2C(=O)c2c1ccc1nc(-c3ccc(Br)cc3)[nH]c21", "89%"],
  ["O=C1c2ccccc2C(=O)c2c1ccc1nc(CCl)[nH]c21", "94%"],
  ["CCCCc1nc2ccc3c(c2[nH]1)C(=O)c1ccccc1C3=O", "91%"],
  ["O=C1c2ccccc2C(=O)c2c1ccc1nc(-c3ccc4c(c3)OCO4)[nH]c21", "61%"],
  ["CCc1nc2ccc3c(c2[nH]1)C(=O)c1ccccc1C3=O", "70%"],
  ["CC(C)c1nc2ccc3c(c2[nH]1)C(=O)c1ccccc1C3=O", "83%"],
  ["O=C1c2ccccc2C(=O)c2c1ccc1nc(-c3ccc([N+](=O)[O-])cc3)[nH]c21", "85%"],
  ["CC(C)(C)c1nc2ccc3c(c2[nH]1)C(=O)c1ccccc1C3=O", "88%"],
  ["CN(C)c1ccc(-c2nc3ccc4c(c3[nH]2)C(=O)c2ccccc2C4=O)cc1", "92%"],
  ["O=C1c2ccccc2C(=O)c2c1ccc1[nH]c(=S)[nH]c21", "97%"],
  ["COc1cc(-c2nc3ccc4c(c3[nH]2)C(=O)c2ccccc2C4=O)ccc1O", "85%"],
  ["O=C1c2ccccc2C(=O)c2c1ccc1nc(-c3ccccc3)[nH]c21", "81%"],
  ["CCC(C)c1nc2ccc3c(c2[nH]1)C(=O)c1ccccc1C3=O (centres undefined)", "67%"],
  ["CCCCCCCc1nc2ccc3c(c2[nH]1)C(=O)c1ccccc1C3=O", "89%"],
  ["O=C1c2ccccc2C(=O)c2c1ccc1nccnc21", "105%"]
]}

* * *

tested on: NCI-H226; experiment: Antiproliferative activity against human NCI-H226 cells assessed as cell growth at 10 uM; type: functional; conditions: read-out: Activity
REPORTED_PROPERTY: growth at 10 µM (%)

{"columns": ["SUBSTANCE_SMILES", "MEASUREMENT_TARGET", "VALUE_UNIT", "MEAS_VALUE"],
 "data": [
  ["CC1(C)Nc2ccc3c(c2N1)C(=O)c1ccccc1C3=O", "NCI-H226", "%", 89.7],
  ["Cc1ccc(-c2nc3ccc4c(c3[nH]2)C(=O)c2ccccc2C4=O)cc1", "NCI-H226", "%", 101],
  ["CCc1nc2ccc3c(c2[nH]1)C(=O)c1ccccc1C3=O", "NCI-H226", "%", 75.9],
  ["COc1cc(-c2nc3ccc4c(c3[nH]2)C(=O)c2ccccc2C4=O)ccc1O", "NCI-H226", "%", 100],
  ["O=C1c2ccccc2C(=O)c2c1ccc1nsnc21", "NCI-H226", "%", 97.8],
  ["O=C1c2ccccc2C(=O)c2c1ccc1nc(-c3ccc4c(c3)OCO4)[nH]c21", "NCI-H226", "%", 97],
  ["O=C1c2ccccc2C(=O)c2c1ccc1nc(-c3ccc(Br)cc3)[nH]c21", "NCI-H226", "%", 103],
  ["O=C1c2ccccc2C(=O)c2c1ccc1nc(-c3ccccc3)[nH]c21", "NCI-H226", "%", 80.5],
  ["N#Cc1ccc(-c2nc3ccc4c(c3[nH]2)C(=O)c2ccccc2C4=O)cc1", "NCI-H226", "%", 103],
  ["CN(C)c1ccc(-c2nc3ccc4c(c3[nH]2)C(=O)c2ccccc2C4=O)cc1", "NCI-H226", "%", 89.3],
  ["O=C1c2ccccc2C(=O)c2c1ccc1nccnc21", "NCI-H226", "%", 86.7]
]}
